System: M14 melanoma
PROTOCOL: NCI-60 one-dose screen, 48 h
CONDITIONS: 10 µM unless noted
The panel holds about 83,000 compounds, 20% with a hit somewhere; the sample as a whole holds those more often. Activity calls are given as the source filed them. The calls were made as follows: active = growth percent below 10; inactive = the rest.
Outcome codes: class 1 (active), class 0 (inactive)

# COMPOUND, QUALITATIVE_LABEL
records = [
    ("COc1cc(/C=C/C(=O)/C=C/c2cc(OC)c3c(c2OC)OCO3)c(OC)c2c1OCO2", "class 0"),
    ("O=S(=O)(Nc1ccc(-c2nc(-c3cccc(OCCN4CCOCC4)c3)c(-c3ccnc(Br)c3)[nH]2)cc1)c1ccccc1", "class 0"),
    ("CCOc1c(B(O)O)cccc1-c1nc2ccc3[nH]ncc3c2c2c1CCCC2", "class 0"),
    ("C#Cc1cccc(NC(=O)c2ccc(NC(=O)C=C)cc2)c1", "class 0"),
    ("CC(=O)N1N=C(c2ccc(Nc3nc(Nc4ccc(F)cc4)nc(Nc4ccc(Cl)cc4)n3)cc2)CC1c1ccc(Cl)cc1 (centres undefined)", "class 0"),
    ("COc1cc(C(=O)c2cnc(-c3c[nH]c4cccc(C)c34)[nH]2)cc(OC)c1OC", "class 1"),
    ("N/C(=N\\c1nc2ccccc2s1)NC(=O)Nc1cccc2ccccc12", "class 1"),
    ("COc1ccc(-c2nc(NN)c3c(C)nn(-c4ccc(F)cc4)c3n2)cc1", "class 0"),
    ("COc1ccc2nc(NC(=O)c3cccnc3Nc3ccc(S(N)(=O)=O)cc3)sc2c1", "class 0"),
    ("CCOC(=O)/C=C1\\S/C(=N\\Nc2ccc([N+](=O)[O-])cc2[N+](=O)[O-])N(Cc2ccccc2)C1=O", "class 0"),
    ("Cc1nc(NC(=O)COc2ccc(/C=C3\\Cc4ccc(Cl)cc4C3=O)cc2)sc1C", "class 0"),
    ("CCCCC[C@H](O)C/C=C1/C(=O)C=C[C@@H]1C/C=C\\CCCC(=O)OC", "class 0"),
    ("CCOC(=O)c1nc(Nc2ccc(C(C)=O)cc2)sc1C", "class 0"),
    ("COc1ccc(/C=C/c2c(C(=O)/C=C/c3ccc(Cl)cc3)c(C)nc3ccccc23)cc1", "class 0"),
    ("COC(=O)[C@H](C)NC(=O)NC(=O)NC(=O)CI", "class 0"),
    ("CC(=O)OC[C@H]1OC(Sc2sc(C(=O)c3ccc(C)cc3)c(N)c2-c2nc3ccccc3s2)[C@H](OC(C)=O)[C@@H](OC(C)=O)[C@@H]1OC(C)=O (some centres undefined)", "class 0"),
    ("O=C(/C=C/c1ccc([N+](=O)[O-])o1)NNC(=O)c1cc2ccccc2cc1O", "class 1"),
    ("O=c1c2cc(F)ccc2sc2c(N3CCNCC3)nc3ccccc3c12", "class 1"),
    ("NS(=O)(=O)c1ccc(-n2nc(-c3ccc(Cl)cc3)c3ccccc3c2=O)cc1", "class 0"),
]

====

Measured growth, listed per entry for reference.
Tested on: OVCAR-8 ovarian
PROTOCOL: NCI-60 one-dose screen, 48 h (100 = growth as untreated, 0 = no growth, -100 = all killed)
CONDITIONS: 10 µM unless noted
Method: Growth inhibition of the OVCAR-8 human tumor cell line is measured as a screen for anti-cancer activity. Cells are grown in 96 well plates and exposed to the test compound for 48 hours. Compounds are tested at a single concentration, which is 10^-5 M for most compounds. The reported endpoint is percent growth (GI% or GIPRCNT), where numbers from 0 - 100% represent growth inhibition, and numbers from -100% - 0 represent cell death. For example, a value of 40 represents 60% growth inhibition. […]
About 83,000 compounds went through this panel and 20% of them were active in at least one assay; those are over-represented in the sample as a whole.

# COMPOUND, UNIT_ABBREVIATION, growth
measured = [
    ("COc1cc2cc(Oc3ccc(NC(=O)Nc4ccc(F)c(C(F)(F)F)c4)cc3)c(C)nc2cc1OCCN1CCOCC1", "%", 13.8),
    ("CC(=O)N1CCN(c2ccc(OCC3CO[C@](Cn4ccnc4)(c4ccc(Cl)cc4Cl)O3)cc2)CC1 (stereo not given in full)", "%", 83.9),
    ("CN(C)CCN1CCN(c2ncccc2C2Nc3ccccc3-n3cccc32)CC1 (stereo not given)", "%", 101),
    ("COc1ccc(-c2nc(NCCO)[nH]c(=O)c2C#N)cc1", "%", 107),
    ("CCC12CCC[N+]3([O-])CCC4(C(=Nc5ccccc54)C(O)(C(=O)OC)C1)C23 (stereo not given)", "%", 102),
]

====

# growth annotations
Test system: SNB-19 CNS
PROTOCOL: NCI-60 one-dose screen, 48 h (100 = growth as untreated, 0 = no growth, -100 = all killed)
CONDITIONS: 10 µM unless noted
About 83,000 compounds went through this panel and 20% of them were active in at least one assay; those are over-represented in the sample as a whole.

# COMPOUND, TARGET_SYSTEM, growth, %
data = [
    ("c1cc(NCCc2ccncc2)nc(-n2cnc3ccccc32)c1", "SNB-19 CNS", 99.9),
    ("CCCCC[C@H](O)C/C=C1/C(=O)C=C[C@@H]1C/C=C\\CCCC(=O)OC", "SNB-19 CNS", 60.4),
    ("CNc1nc2c(s1)C(c1cc(F)ccc1F)CC(=O)N2 (stereo unspecified)", "SNB-19 CNS", 72.2),
    ("O=C(N=c1oc2ccccc2cc1-c1cc2ccccc2[nH]1)Nc1ccc(Cl)cc1", "SNB-19 CNS", 97.3),
    ("O=C1/C(=C/c2ccc(F)cc2)Sc2c(Br)cccc21", "SNB-19 CNS", 95.6),
    ("CCOC(=O)c1nc(Nc2ccc(C(C)=O)cc2)sc1C", "SNB-19 CNS", 95.9),
]

====

Tested on: LOX IMVI melanoma
PROTOCOL: NCI-60 one-dose screen, 48 h (100 = growth as untreated, 0 = no growth, -100 = all killed)
CONDITIONS: 10 µM unless noted
The panel holds about 83,000 compounds, 20% with a hit somewhere; the sample as a whole holds those more often.
Please enter Met where growth is greater than or equal to 30%, and Not met where it is lower.

# TEST_SMILES, QUALITATIVE_LABEL
rows = [
    ("O=CN(SSN(C=O)C1CCCCC1)C1CCCCC1", "Met"),
    ("COc1cc(C(=O)c2cnc(-c3cccc4[nH]ccc34)[nH]2)cc(OC)c1OC", "Not met"),
    ("COc1ccc2c(c1)nc(NNC(=O)c1cnccn1)c1cccn12", "Not met"),
    ("COc1ccc(NC(=O)n2nc(/C=C\\c3ccc(O)c(OC)c3)cc2/C=C\\c2ccc(O)c(OC)c2)cc1", "Not met"),
    ("CCc1ccc(Oc2c(-c3ccc(OCc4ccc(Cl)cc4)cc3O)nn(C)c2C(F)(F)F)cc1", "Not met"),
    ("Oc1ccc(-c2nc3ccc4[nH]ncc4c3c3c2CCCC3)c2cccnc12", "Not met"),
    ("CS(=O)(=O)N(c1cc(-c2ccc3ncnc(Nc4ccc(F)c(Cl)c4)c3c2)cnc1Cl)S(C)(=O)=O", "Met"),
    ("O=C(O)CCC/C=C\\C[C@H]1C=CC(=O)/C1=C/C[C@@H](O)CCc1cccc(C(F)(F)F)c1", "Not met"),
    ("O=C(CSc1nc2ccccc2[nH]1)Nc1cccc(Cl)c1", "Met"),
    ("N#Cc1cccc(NC(=O)c2cc(-c3ccc(F)cc3F)ccc2O)c1", "Not met"),
    ("Cc1[nH]c(C(=O)Nc2ccc(C(=O)N3CCNCC3)cc2OC(C)C)c(Cl)c1Cl", "Not met"),
    ("COc1ccc(OC)c(/C=C/c2nnc(Nc3ccccc3)o2)c1", "Met"),
    ("O=c1c2cc(F)cc(Cl)c2sc2c(NCCCNCCO)nc3ccccc3c12", "Met"),
    ("Cc1ccc2sc3c(NCCCN)nc4ccccc4c3c(=O)c2c1", "Not met"),
]

====

Tested on: NCI-H522 lung
PROTOCOL: NCI-60 one-dose screen, 48 h
CONDITIONS: 10 µM unless noted
About 83,000 compounds went through this panel and 20% of them were active in at least one assay; those are over-represented in the sample as a whole. Activity calls are given as the source filed them. How the source made its calls: active means growth percent below 10; inactive means the rest.
Labels: active, inactive

# COMPOUND, QUALITATIVE_LABEL
records = [
    ("NCCCNc1nc2ccccc2c2c(=O)c3cc(F)cc(F)c3sc12", "inactive"),
    ("C=C1C(=O)O[C@H]2[C@H]1CC/C(COC(=O)C(C)c1ccc(CC(C)C)cc1)=C\\CC[C@@]1(C)O[C@@H]21 (stereo partly drawn)", "active"),
    ("Cc1nc(S(=O)(=O)c2ccccc2)c(S(=O)(=O)Cc2ccc([N+](=O)[O-])cc2)o1", "inactive"),
    ("Cn1cc(-c2cc3ncnc(Nc4ccc(CC(=O)Nc5cc(C(C)(C)C)on5)cc4)c3s2)cn1", "inactive"),
    ("C#Cc1cccc(NC(=O)c2ccc(NC(=O)C=C)cc2)c1", "inactive"),
    ("CC[C@H](C)C(=O)O[C@H]1CCC=C2C=C[C@H](C)[C@H](CC[C@@H]3CC=CC(=O)O3)[C@H]21", "inactive"),
    ("CC([C@H]1CCC2C3CCC4C(=O)C(NC=O)=CC[C@]4(C)C3CC[C@@]21C)N(C)C (stereo partly drawn)", "inactive"),
    ("COc1cccc(-c2nc(-c3ccc(NC(=O)c4ccccc4)cc3)[nH]c2-c2ccnc(Br)c2)c1", "inactive"),
    ("Cc1cc(Cl)ccc1NS(=O)(=O)c1ccc(-c2cnc(C3CC3)o2)cc1", "inactive"),
    ("O=c1c2cc(F)ccc2sc2c(NCCCNCCO)nc3ccc(F)cc3c12", "inactive"),
    ("CC([C@H]1CCC2C3CCC4C[C@@H](NC=O)CC[C@]4(C)C3CC[C@@]21C)N(C)C (stereo partly drawn)", "inactive"),
    ("NC[C@@H]1O[C@H](O[C@@H]2[C@@H](CO)OC(O[C@@H]3[C@@H](O)[C@H](N)C[C@H](N)[C@H]3OC3O[C@H](CN)[C@@H](O)[C@H](O)[C@H]3N)[C@@H]2O)[C@H](N)[C@@H](O)[C@@H]1O (stereo partly drawn)", "inactive"),
    ("Cc1nc2nc(SCC(=O)O)[nH]c2c(=O)[nH]1", "inactive"),
    ("CCN(CC)S(=O)(=O)c1ccc(NC(=O)CSc2nnc(C)n2-c2ccccc2)cc1", "inactive"),
    ("COc1ccc(S(=O)(=O)n2c3ccccc3n3ncc(-c4nnc(C)o4)c23)cc1", "inactive"),
    ("COc1cc2oc(-c3ccc(O)cc3)cc(=O)c2c(O)c1-c1c(OC)cc(O)c2c(=O)cc(-c3ccc(O)cc3)oc12", "inactive"),
    ("N#Cc1c(Nc2cccc(Cl)c2)sc(C(=O)c2cc3cc(Cl)ccc3o2)c1N", "inactive"),
    ("Nc1nc(Cl)cc(=O)n1Cc1ccccc1", "inactive"),
]

Every entry's value here was drawn from PubChem BioAssay (NCI).
